# Lookup of reported Survivors/Injected mice; i.c.v.; AahII:Nb 1:2; 3 LD50/mouse; 36 ng Nb/mouse keyed by entry
# MEASUREMENT TARGET: T1, AahII toxin of Androctonus australis hector (Androctonus australis hector, UniProt P01484 20-83)
# T1 sequence: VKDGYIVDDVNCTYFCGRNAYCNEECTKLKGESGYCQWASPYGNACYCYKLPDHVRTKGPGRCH
# METHOD: cell-based or functional assay

[
  {
    "BINDER": "NbAahII18 (VHH, also called NbAahlllδ; NbAahll l δ) VHH: QVQLQESGGGSVQAGGSLRLSCAASGDSYSNYYMAWFRQAPGKEREGVAHINRSGRITLYADSVKGRFTMSRDNAKNTVYLQMNSLRPEDTAIYYCAAGVRTHMPPLASYGFDYWGQGTQVTVSS",
    "ASSAY VALUE": "1 survivors of 4 mice"
  },
  {
    "BINDER": "NbAahII38 (VHH, also called cluster H) VHH: DVQLVESGGGLVQPGGSLRLSCAASGFTFSNYVMSWVRQAPGKGLEWVSGINHGGGIQDYADSVKGRFTISRDNAKNTLYLQLNSLKIEDTAMYYCVRASHYRDYGPTIYSWGQGTQVTVSS",
    "ASSAY VALUE": "0 survivors of 4 mice"
  },
  {
    "BINDER": "NbAahII05 (VHH, also called cluster G) VHH: QVQLQESGGGSVQAGGSLRLSCAASGYTCTKFNMGWYRQAPGKQREFVASIRRDSTIYYGDSVKGRFTISQDNAKNMVYLQMTSLKPEDSAMYYCSTRCLTSSVPYWGQGTQVTVSS",
    "ASSAY VALUE": "4 survivors of 4 mice"
  }
]

Moving on to the next binder.
The binder NbAahII36 (VHH, also called cluster C) VHH: QVQLVESGGGSVQAGGSLRLSCAASGYTFSNYRMGWFRQAPGKECELVSTILTDGSTNYADSVKGRFTISRDNAKNTVYLLMNNLKAEDTAVYYCAAGNSRKGYLRRCGGTDFGYWGQGTQVTVSS showed Survivors/Injected mice; i.c.v.; AahII:Nb 1:2; 3 LD50/mouse; 36 ng Nb/mouse equal to 0 survivors of 4 mice
